# tested target: linear hepcidin variant (human)
# assay method text: BIAcore: 1 nM antibody preincubated with 10 nM of this hepcidin form in solution, then run over immobilized rhHepc surface; % = free antibody still binding the surface (low % = strong binding to the solution form)
Reported Binding to Hepcidin Surface (%) values follow for various binders
// return numeric value only (unit: %, not printed)

binder	outcome measure	units of measure	measurement
rat anti-human hepcidin monoclonal antibody R9 (antibody, V domains shown) VH: QVTLKESGPGILQPSQTLSLTCSFSGFSLSTSGICVSWIRQPSGKGLEWLATICWEDSKGYNPSLKNRLTISKDTSNNQAFLKITSVDTADTAIYYCARPLNYGGYSELELDYWGQGVMVTVSS VL: DIQMTQSPSLLSASVGDRVTLSCKASQNIYKYLNWYQQKLGEAPKLLIYYTNSLQTGIPSRFSGSGSGTDFTLTISSLQPEDVATYYCYQYNSGPTFGAGTKLELK	Binding to Hepcidin Surface (%)	%	100
murine anti-human hepcidin monoclonal antibody 2.7 (antibody, V domains shown) VH: QIQLVQSGPELKKPGETVKISCKASGYTFTTYGMSWVKQAPGKGLKWMGWINTYSGVPTYADDFKGRFAFSLETSASTAYLQINNLKNEDTATYFCGRDHYYGEVAYWGQGTLVTVSA VL: DIVLTQSPASLAVSLGQRATISCRASESVDSYGNSFMHWYQQKPGQPPKLLIYRASNLESGIPARFSGSGSRTDFTLTINPVEADDVATYYCHQSNEEYTFGGGTKLEIK	Binding to Hepcidin Surface (%)	%	100
murine anti-human hepcidin monoclonal antibody Ab43 (antibody, V domains shown) VH: QIQLVQSGPELKKPGETVKISCKASGYTFTTYGMSWVKQAPGKGLKWMGWINTYSGVPTYADDFKGRFAFSLETSASTAYLQINNLKNEDTATYFCASLWYYGRAFDYWGQGTTLTVSS VL: NIVLTQSPASLAVSLGQRATISCRASESVDSYGNSFMHWYQQKPGQPPKLLIYLASNLESGVPARFSGSGSRTDFTLTIDPVEADDAATYYCQQNNEDRTFGGGTKLEIK	Binding to Hepcidin Surface (%)	%	100

Consider the record given below.
Could you tell me which Binding to Hepcidin Surface (%) is on file for murine anti-human hepcidin monoclonal antibody 2.41 (antibody, V domains shown) VH: QIQLVQSGPELKKPGETVKISCKASGYTFTTYGMSWVKQAPGKGLKWMGWINTSSGVPTYADDFMGRFAFSLETSASTAYLQINNLKNEDTATYFCARDRYYGEVAYWGQGTLVTVSA VL: DIVLTQSPASLAVSLGQRATISCRASESVDSFGNSFMHWYQLKPGQPPKLLIYRASNLESGIPARFSGSGSRTDFTLTINPVEADDVAIYYCQQSNEEYTFGGGTKLEIK ?
99
